Readings of Conjugate binding affinity ELISA for the listed binders
Biological target: T1, cynomolgus monkey transferrin receptor 1 (cTfR1) (cynomolgus monkey (Macaca fascicularis), UniProt Q5RDH6 89-760 (Pongo abelii entry), limits assumed)
T1 construct: Recombinant cynomolgus TfR1; also called cyTfR1; cyno TfR1
T1 chain: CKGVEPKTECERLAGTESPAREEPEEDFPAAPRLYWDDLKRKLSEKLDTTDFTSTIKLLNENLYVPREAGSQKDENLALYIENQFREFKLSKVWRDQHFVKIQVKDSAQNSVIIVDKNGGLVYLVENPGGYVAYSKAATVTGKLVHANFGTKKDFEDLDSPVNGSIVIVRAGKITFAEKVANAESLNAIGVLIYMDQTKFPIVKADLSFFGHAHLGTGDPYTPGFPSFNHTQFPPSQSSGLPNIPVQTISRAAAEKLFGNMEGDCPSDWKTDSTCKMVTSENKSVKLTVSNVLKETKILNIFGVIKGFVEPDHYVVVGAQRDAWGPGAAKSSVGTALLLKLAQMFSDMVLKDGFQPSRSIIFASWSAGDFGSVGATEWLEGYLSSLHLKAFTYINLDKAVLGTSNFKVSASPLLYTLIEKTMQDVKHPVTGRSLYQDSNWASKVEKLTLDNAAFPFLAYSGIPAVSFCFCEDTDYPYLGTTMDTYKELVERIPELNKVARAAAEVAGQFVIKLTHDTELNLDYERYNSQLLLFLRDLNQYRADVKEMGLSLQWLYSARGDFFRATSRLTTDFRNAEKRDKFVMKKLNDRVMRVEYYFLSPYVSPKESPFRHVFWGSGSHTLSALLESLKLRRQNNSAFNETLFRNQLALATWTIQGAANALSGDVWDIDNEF
Assay: ELISA on plate-coated cyno TfR1, Fab-ASO300 conjugate
Quick reminder: number only, in nM, skip the unit.

Solved entries (count: 4):
BINDER	OBSERVED MEASUREMENT
humanized anti-TfR Fab 5H12 VH5 (C33Y)/Vk3 conjugated to DMPK-targeting oligonucleotide ASO300 (Fab, V domains shown, Fab conjugated to oligonucleotide ASO300; chain and residue not stated, Fab-oligonucleotide conjugate; The protein chains are those of the unconjugated Fab) VH: QVQLVQSGAEVKKPGASVKVSCKASGYSFTDYYINWVRQAPGQGLEWMGWIYPGSGNTRYSERFKGRVTITRDTSASTAYMELSSLRSEDTAVYYCAREDYYPYHGMDYWGQGTLVTVSS VL: DIVLTQSPDSLAVSLGERATINCRASESVDGYDNSFMHWYQQKPGQPPKLLIFRASNLESGVPDRFSGSGSRTDFTLTISSLQAEDVAVYYCQQSSEDPWTFGQGTKLEIKR	2.3
humanized anti-TfR Fab 5H12 VH5 (C33D)/Vk4 conjugated to DMPK-targeting oligonucleotide ASO300 (Fab, V domains shown, Fab conjugated to oligonucleotide ASO300; chain and residue not stated, Fab-oligonucleotide conjugate; The protein chains are those of the unconjugated Fab) VH: QVQLVQSGAEVKKPGASVKVSCKASGYSFTDYDINWVRQAPGQGLEWMGWIYPGSGNTRYSERFKGRVTITRDTSASTAYMELSSLRSEDTAVYYCAREDYYPYHGMDYWGQGTLVTVSS VL: DIVMTQSPDSLAVSLGERATINCRASESVDGYDNSFMHWYQQKPGQPPKLLIFRASNLESGVPDRFSGSGSGTDFTLTISSLQAEDVAVYYCQQSSEDPWTFGQGTKLEIKR	10.2
humanized anti-TfR Fab 3A4 VH3 (N54S)/Vk4 conjugated to DMPK-targeting oligonucleotide ASO300 (Fab, V domains shown, Fab conjugated to oligonucleotide ASO300; chain and residue not stated, Fab-oligonucleotide conjugate; The protein chains are those of the unconjugated Fab) VH: EVQLVQSGSELKKPGASVKVSCTASGFNIKDDYMYWVRQPPGKGLEWIGWIDPESGDTEYASKFQDRVTVTADTSTNTAYMELSSLRSEDTAVYYCTLWLRRGLDYWGQGTLVTVSS VL: DIVMTQSPLSLPVTPGEPASISCRSSKSLLHSNGYTYLFWFQQRPGQSPRLLIYRMSNLASGVPDRFSGSGSGTDFTLKISRVEAEDVGVYYCMQHLEYPFTFGGGTKVEIKR	7.8
humanized anti-TfR Fab 3M12 VH4/Vk3 conjugated to DMPK-targeting oligonucleotide ASO300 (Fab, V domains shown, Fab conjugated to oligonucleotide ASO300; chain and residue not stated, Fab-oligonucleotide conjugate; The protein chains are those of the unconjugated Fab) VH: QVQLQESGPGLVKPSQTLSLTCTVTGYSITSGYYWNWIRQPPGKGLEWIGYITFDGANNYNPSLKNRVSISRDTSKNQFSLKLSSVTAEDTATYYCTRSSYDYDVLDYWGQGTTVTVSS VL: DIQMTQSPSSLSASVGDRVTITCRASQDISNFLNWYQQKPGQPVKLLIYYTSRLHSGVPSRFSGSGSGTDFTLTISSLQPEDFATYYCQQGHTLPYTFGQGTKLEIKR	2.1

Ask: If you can, please state the reported Conjugate binding affinity ELISA value of humanized anti-TfR Fab 3A4 VH3/Vk4 conjugated to DMPK-targeting oligonucleotide ASO300 (Fab, V domains shown, Fab conjugated to oligonucleotide ASO300; chain and residue not stated, Fab-oligonucleotide conjugate; The protein chains are those of the unconjugated Fab) VH: EVQLVQSGSELKKPGASVKVSCTASGFNIKDDYMYWVRQPPGKGLEWIGWIDPENGDTEYASKFQDRVTVTADTSTNTAYMELSSLRSEDTAVYYCTLWLRRGLDYWGQGTLVTVSS VL: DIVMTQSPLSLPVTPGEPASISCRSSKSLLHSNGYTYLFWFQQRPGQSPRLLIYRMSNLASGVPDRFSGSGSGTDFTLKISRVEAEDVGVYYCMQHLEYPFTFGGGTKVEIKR .
Result: 7.6
